target of assay: Aldehyde dehydrogenase, mitochondrial (Homo sapiens)
assay protocol: qHTS for Inhibitors of the Aldehyde Dehydrogenase Family (ALDH2) Primary screen (AID 2061308); also: nearly all actives have a fitted effect of over 55% in size
setup conditions: ALDH2 enzyme inhibition qHTS, 1536-well; series mostly up to 56 µM
Records with an inconclusive call do not appear. Activity calls are given as the source filed them. Calls follow the shape of the dose curve; as a rule, active = well fitted inhibition curve with a large enough effect; inconclusive = small, poorly fitted or top-dose-only effect; inactive = flat fitted curve, though single readings scatter.
endpoint name: outcome

compound | reported value
COc1ccc(-c2ccc(=O)n(CC(=O)NCCc3ccccc3)n2)cc1OC | inactive
CCCn1c(-c2ccc(F)cc2)nc2c(NC3CCN(Cc4ccccc4)CC3)nc(C)nc21 | inactive
CC(C)CCCCC(=O)N[C@@H](CO)C(=O)N[C@@H](CC(C)C)C(=O)[C@@]1(CO)CO1 | inactive
O=C(Nc1nnc(-c2ccncc2)s1)Nc1ccc(Cl)cc1F | inactive
COc1cc(O)c(C(CC(=O)N2CCC[C@H](C)C2)c2ccc3c(c2)OCO3)c(OC)c1 (some centres not stated) | inactive

Next compound, outcome to be filled in.
Would you kindly share the measured outcome for `Cc1cc(NS(=O)(=O)c2ccc(NC(=O)Cc3ccc(Cl)c(Cl)c3)cc2)on1` ?
inactive
